Assay: folding stability dG unfold from trypsin proteolysis; higher = more stable
Can you tell me folding stability dG unfold for the items I'm about to list?
Answers are plain numbers, in kcal/mol.

Below, each entry is followed by its recorded folding stability dG unfold result.
Seq	Display Unit	Measured
SAGGKKIKITVKELKKKLEEEGYEIEEIEIYNKKTGKKIKTIKEGDVIELPENVKNVVIKVKIKKKKSAGGS [r8_243_TrROS_Hall]	kcal/mol	2.16
SAGGSAGGSPNTVPIPIRVEWYDPKDGEPKDEHPFNINFKTEEEAEDIIDNIAPDHPGMKIEISAGGSAGGS [r12_1043_TrROS]	kcal/mol	0.233

// for each sequence in input: emit folding stability dG unfold
1. SAGGSAMTTIVKTEPPTLDEEGNPYIRLTIKFPNGGTTTITLAPSELPQYLADLPPGFEVEEINPLSAGGSA [r15_339_JUSTAS]
2. SAGGSAGGSAPVLVLETESGVKFETLSLGPGPGALALIVTPDKPALALINLDDPNNIKILASAGGSAGGSAG [r3_450_TrMRF]

Reply:
2.41
1.55

---

Test: folding stability dG unfold from chymotrypsin proteolysis; higher = more stable
Quantity Measured: folding stability dG unfold (kcal/mol)
Numbers only, in kcal/mol.

For each of the sequences below, note its folding stability dG unfold.
1. SAGGSAGGSAGGGMTPVTTTTTVTVSPDATPVNFTTPDGTTVTVTPVPSSDTATVTTTVSSAGGSAGGSAGG [r7_796_JUSTAS]
2. SAGGSAGGSALEIPFEVVDEKDFLLEGDYIVRVAELKNGLRALAIYDPKTGKVLVIVSPGGSAGGSAGGSAG [r3_438_TrMRF]
3. SPPETETYPIPNPEDGKPLMDITIERNPENGNWKVEIYWPGGKKKEVEFPPNETIPIDDLPPGFWVTITRSA [r9_1150_TrROS]
4. SAGGSAGGSAGKKIKYRITIYNKKTGKTIEIEIEMSEDEIKKIAEELAKKYNVKIKIEPVSAGGSAGGSAGG [r11_515_TrROS_Hall]
5. MKETVTVDITVVVEDENGKKHLVRVKVTVEKLPDGTYRVTIEVENLETGKTETIEIEVKGAEFKPGDVIEIS [r1_14_TrROS_Hall]
6. MNVTINITVLSPDSSGYTMKATVTFPETPVTTSKEYKTSDPVSAVEEIIKELVDEENLSNATVTTYPSSRLS [r1_399_JUSTAS]

Reply:
[0.104, 2.07, 1.56, 4.79, 2.56, 0.377]

Task item: What does the data say about its folding stability dG unfold? Entry: SAGGDEDKPKPKIEPKKEIEIVLPYPEDEVTPEELKARIEEETGEKITEIEVTRIPNSNEYKVKFTVESAGG [r13_457_JUSTAS]
Reply: 0.68

---

Experiment: folding stability dG unfold from trypsin proteolysis; higher = more stable
Could you please report measured folding stability dG unfold for the items listed next?
Answers are plain numbers, in kcal/mol.

# count of solved cases: 5
Seq	folding stability dG unfold / kcal/mol
SARVYRLPDGRLVRFEPVPPRPPVIVIPVDFRISPDDPETRRRLAEEIRRRLLEELGLPEDTPIFVDPSSAG [r14_453_TrMRF]	4.11
SMYRIRLPSNKVFTIDVPPDGTVEITLPNGKKLTLKLESEEDILALAEILSKLFPDDPAEIEPIPLEYYRSA [r9_1206_TrMRF]	1.24
SAGGGMSTLVRLPPGGVEEREVPPGTEADLNAEFSPESKLVVRTFDPATGRWTETVYEPGGVPTVLSSSAGG [r13_74_JUSTAS]	2.91
SAGGSAGGSASSSSSIKFLSEEEIKLPDGTPVKVKIYKDPSNNKEYLYLPESKVWLPISKISAGGSAGGSAG [r3_181_JUSTAS]	1.41
SAGGSPETKTISFKYPGNGMRIMVQVERDPADGKKKITINMENNPYMAERAKKALEELGLPVEIHPSAGGSA [r2_30_TrROS]	1.38

Dear reader, for each entry below, please note its folding stability dG unfold.
1. SAGGSAGGSAGMRPVTSVYYDPNTGRLYARFPDGVVANYELTPDGSVRLVSVAPAHPDLDSAGGSAGGSAGG [r17_61_TrMRF]
2. SAGGSGMEKYTVTIDLKFYTPETGKTYTKTVTLTTTSIEEAIKAITEKLTPPDMKIEITSITVTPSSAGGSA [r2_320_JUSTAS]

Reply:
1: 0.992; 2: 4.34

---

Assay: folding stability dG unfold from trypsin proteolysis; higher = more stable
Answer each item with its documented folding stability dG unfold.
Answers are plain numbers, in kcal/mol.

Seq	Display Unit	folding stability dG unfold
SAGGSAGGSAGGGSMLTVKVPETVPEYTSTDPATGKTYNVPPSVPVEVEGSPDSFSILLSAGGSAGGSAGGS [r10_46_JUSTAS]	kcal/mol	1.21
SAKLPEGAVVVIEDIEEKEVNGKKYKTIKISVYDKKNKGKLIAETEIVVENGKIVEKKVKVKKVSKEELSAG [r14_651_TrROS_Hall]	kcal/mol	0.887
SAGGSAGGSMKLTLESASPDPNKVTYTIKFPGGETLTEELPEEEIEKRSKELGWNIKLFGPTKSAGGSAGGS [r12_676_JUSTAS]	kcal/mol	-0.0326
SAGGSARYYFIVIEIWQPGKPVKFIIVVPKEDPKKFESEINEMFPGYNIDIKVIPFPSPEEAEDLFSAGGSA [r15_889_TrROS]	kcal/mol	2.26
SAGGEEVVEEPPPPEVEVIEIRDAETDRTVTLVYNKDTGKLFLFDEDTGLVYEFDVDGRLVRVERLPPSAGG [r13_101_TrROS_Hall]	kcal/mol	2.95
SLPPSLTYTLKLSHPDGSTVTATVFPGGSLRVTVYAPGGVKVAESEYPVDDLEALMKALGIKEVLSMELASA [r9_1107_JUSTAS]	kcal/mol	1.93

Batch request: folding stability dG unfold per item, same order as input.
1. KTISSDELLELLGVSKSELKKLPLEAIVDEVKKALPPGVAVSAKAEPIPENPSYTIVVELKNGEPVTITLDS [r1_340_TrMRF]
2. SAGGSAGGSAGGSGMTTTLLEQREFTLPNGEPVRVTVARFPGGEIVTETEDGVVTTDPLSAGGSAGGSAGGS [r4_111_JUSTAS]
3. SAGGKKKKPKKKIKIKIVKVEKKYDKKTGKLKEVRIEIEIEAESEEEAKKLAEELAKKLNIEVEVKKKSAGG [r13_606_TrROS_Hall]
4. SAGITLHPDARIILKNPSTGEKIELRSETIRRLIAEILGTDRPEEITAEQINAFALSLGFEEAEFEEPSAGG [r19_67_TrMRF]
5. SAGPEKVREAARELFEKLNLPIVSEEAIEVGDAVLIRFEIPEIGTKITILAPVFENGEIKVIVKIEPVSSAG [r5_888_TrMRF]
6. SAMSPEEIRARARALLEEKYPDKPYTLLSVEVDPSTGRVTVTWESPTPEKTTVTTPLTVTFGADGSLRESAG [r14_183_JUSTAS]
7. SAGGSAGGSVPLELELTFKLENGSFIVVKAKIEFNPETPEFKVEVLSVEIFLEPEGKIVSDEDFSAGGSAGG [r6_864_TrMRF]

Reply:
[1.06, -0.134, 1.28, 2.29, 1.71, 2.03, 1.43]

Task item: Recorded folding stability dG unfold for SAGGSAGGSAGGSMKEVTITLTDPETGKVSTLVLKLSPEEIEKAAEELAKSSGKKVTIRSAGGSAGGSAGGS [r4_301_JUSTAS] , please?
Reply: 1.04

---

For each record, write down the corresponding folding stability dG unfold.
Experiment: folding stability dG unfold (combined trypsin and chymotrypsin); higher = more stable

A selection of reference data follows.
Seq	Quantity Measured	Measured
SMPEVRVEEVTIELEFTLPDGRTVRVEIRLTRVTLPDGRVFTRLEIKVEVPEEDEEARKLLKELLEELLSSA [r9_908_TrROS_Hall]	folding stability dG unfold	4.69 kcal/mol
SAGPVLYRVTITVEVSSSGEKGKTLTLEFLVPPSVSGEEVRDRVLALLKAQGYKVEKITVTVTPLPSSASAG [r14_979_JUSTAS]	folding stability dG unfold	5.27 kcal/mol
SAGGSGMEKYTVTIDLKFYTPETGKTYTKTVTLTTTSIEEAIKAITEKLTPPDMKIEITSITVTPSSAGGSA [r2_320_JUSTAS]	folding stability dG unfold	4.62 kcal/mol
SAEEEEVVEVELEIEIEMTPEELEELIEALRKAAEELGFEIEDIEIRVERKEDGTLRVTIRVKIRLPKPSAG [r14_109_TrROS_Hall]	folding stability dG unfold	4.2 kcal/mol
SADWYYWKNPKDGKEHTVDPEELSPEFAKKGIEPEEPVPPVINIDVDSAEQADELADEFPNKVQVQPNGSAG [r14_638_TrROS]	folding stability dG unfold	< -1 kcal/mol
SAGMLVRVTLKYPDGKTIKIPFPYAKILSEETSNNETTFTIDSPESADKAVEAIKKEYPDIEVKVEPLESAG [r5_453_JUSTAS]	folding stability dG unfold	2.23 kcal/mol

Parameter requested: folding stability dG unfold. Apply to each item below.
1. SAGLRIEPTPDYIKITMPGPNMANEIIKKIQEHFGDIEIDDIKPEPYPNGNNRVTIWIPLKNLPPELLKSAG [r5_857_TrROS]
2. SAGGSAGGSAMKTFTKTFSSPEEAERAAEEIKEKLEKEGKKVKITFEKPETDTYIVTITIESAGGSAGGSAG [r3_211_JUSTAS]
3. SAGGSAMKLPKNVKITITKNKDGTVTITITYPDGKKITITMKIDKNGKLKFTKEQIKKLIKELAKKSAGGSA [r15_780_TrROS_Hall]
4. SAGTVTSSTTPLPDGSLLSTTTTTSPVSGTSVTTSTTTTTPVTPTTPPPPPRPVYPRYYDGVTEPALSLSAG [r5_169_JUSTAS]
5. SAGGSASVTRMIQIPPGDPNMSIEEAIEKIKIYLPNGKPVTIEIDRIWPDPNRYFFMITIKDGKPVSAGGSA [r15_331_TrROS]
6. SAGGSAMSLEELKGHLVRLTLPDGRVVVAPVKEMDEEAPVLVIEFGGKPILIPKDAPVKLEVLPPGSAGGSA [r15_355_TrMRF]
7. SAGGSAGGMELLPDGTLVLTLKAPSLEEALKAAEALAPPGAEVEIRFDEETKEVVIVIKLPPPESAGGSAGG [r6_859_TrROS_Hall]
8. SAGGSAGGSAEYIVVNSDEQLKALKELGGVKEVERKENFVVVEFPDIPPELREKLLEVIKESAGGSAGGSAG [r3_398_TrMRF]

Reply:
["1.06 kcal/mol", "3.82 kcal/mol", "2.53 kcal/mol", "-0.639 kcal/mol", "1.86 kcal/mol", "0.759 kcal/mol", "3.85 kcal/mol", "-0.366 kcal/mol"]

Quick one: give me folding stability dG unfold for each item below, same order please.
1. SAGGLPPEIKVEISFTPDPATGKWRGTVTAFDPVTGKTVTVPVTSDTPEELRARLEAAAAAVAAALASAGGS [r8_480_JUSTAS]
2. SAGGSAGGSAEELVKYLAKEHGHPPGKEVTIPFDNWMIKIRYNNDGVPVGVEIKPMPPDDMSAGGSAGGSAG [r3_468_TrROS]
3. SAGGSAGGSMPTSSSSSLSSEAEVEALIEELKKKGAKEFTVDPGPGALTLTITYDDSTLTISSSAGGSAGGS [r12_846_JUSTAS]
4. SAAAAVAAAVAATLEALLPPGYRITAVTAEVAPDGTVTIPVTVEGPDGVPTLVVVTVDLATGEITVTVFGSA [r9_219_TrMRF]
5. SAGGSAGGSMEPRPVVITFRDPEGNFIGTVELPAEFESEEEALAAAEAVRAANPGYTVEIEGLSAGGSAGGS [r20_201_JUSTAS]

Reply:
4.08 kcal/mol
0.593 kcal/mol
1.12 kcal/mol
4.22 kcal/mol
1.87 kcal/mol
